reported conditions: in n-butanol, 318.15 K
property: solubility (mole fraction)

The recorded solubility (mole fraction) for entry CC(=O)N[C@@H](C)C(=O)O equals 0.143

----------
reported conditions: in 2-butanone, 288.15 K
property: solubility (mole fraction)
Please give the numeric answer without any surrounding text.

The recorded solubility (mole fraction) for entry CC(=O)N[C@@H](C)C(=O)O equals 0.0132

----------
reported conditions: in n-propanol, 323.15 K
property: solubility (mole fraction)
Please give the numeric answer without any surrounding text.

The recorded solubility (mole fraction) for entry CC(=O)N[C@@H](C)C(=O)O equals 0.213

----------
reported conditions: in isobutanol, 308.15 K
property: solubility (mole fraction)
Please give the numeric answer without any surrounding text.

The recorded solubility (mole fraction) for entry CC(=O)N[C@@H](C)C(=O)O equals 0.107

----------
reported conditions: in isobutanol, 288.15 K
property: solubility (mole fraction)
Please give the numeric answer without any surrounding text.

The recorded solubility (mole fraction) for entry CC(=O)N[C@@H](C)C(=O)O equals 0.063

----------
reported conditions: in isobutanol, 303.15 K
property: solubility (mole fraction)
Please give the numeric answer without any surrounding text.

The recorded solubility (mole fraction) for entry CC(=O)N[C@@H](C)C(=O)O equals 0.0916

----------
reported conditions: in 2-butanone, 318.15 K
property: solubility (mole fraction)
Please give the numeric answer without any surrounding text.

The recorded solubility (mole fraction) for entry CC(=O)N[C@@H](C)C(=O)O equals 0.0358

----------
reported conditions: in isopentanol, 318.15 K
property: solubility (mole fraction)
Please give the numeric answer without any surrounding text.

The recorded solubility (mole fraction) for entry CC(=O)N[C@@H](C)C(=O)O equals 0.125

----------
reported conditions: in acetone, 308.15 K
property: solubility (mole fraction)
Please give the numeric answer without any surrounding text.

The recorded solubility (mole fraction) for entry CC(=O)N[C@@H](C)C(=O)O equals 0.0524

----------
reported conditions: in methyl acetate, 318.15 K
property: solubility (mole fraction)

The recorded solubility (mole fraction) for entry CC(=O)N[C@@H](C)C(=O)O equals 0.0196

----------
reported conditions: in n-propyl acetate, 303.15 K
property: solubility (mole fraction)
Please give the numeric answer without any surrounding text.

The recorded solubility (mole fraction) for entry CC(=O)N[C@@H](C)C(=O)O equals 0.00558

----------
reported conditions: in sec-butanol, 318.15 K
property: solubility (mole fraction)

The recorded solubility (mole fraction) for entry CC(=O)N[C@@H](C)C(=O)O equals 0.161

----------
reported conditions: in ethyl acetate, 308.15 K
property: solubility (mole fraction)
Please give the numeric answer without any surrounding text.

The recorded solubility (mole fraction) for entry CC(=O)N[C@@H](C)C(=O)O equals 0.00947

----------
reported conditions: in methyl acetate, 303.15 K
property: solubility (mole fraction)

The recorded solubility (mole fraction) for entry CC(=O)N[C@@H](C)C(=O)O equals 0.0114

----------
reported conditions: in n-butyl acetate, 298.15 K
property: solubility (mole fraction)
Please give the numeric answer without any surrounding text.

The recorded solubility (mole fraction) for entry CC(=O)N[C@@H](C)C(=O)O equals 0.00455

----------
reported conditions: in acetone, 298.15 K
property: solubility (mole fraction)
Please give the numeric answer without any surrounding text.

The recorded solubility (mole fraction) for entry CC(=O)N[C@@H](C)C(=O)O equals 0.0372

----------
reported conditions: in n-propanol, 288.15 K
property: solubility (mole fraction)
Please give the numeric answer without any surrounding text.

The recorded solubility (mole fraction) for entry CC(=O)N[C@@H](C)C(=O)O equals 0.0937

----------
reported conditions: in sec-butanol, 283.15 K
property: solubility (mole fraction)
Please give the numeric answer without any surrounding text.

The recorded solubility (mole fraction) for entry CC(=O)N[C@@H](C)C(=O)O equals 0.068

----------
reported conditions: in n-butyl acetate, 308.15 K
property: solubility (mole fraction)
Please give the numeric answer without any surrounding text.

The recorded solubility (mole fraction) for entry CC(=O)N[C@@H](C)C(=O)O equals 0.00573

----------
reported conditions: in 2-butanone, 298.15 K
property: solubility (mole fraction)
Please give the numeric answer without any surrounding text.

The recorded solubility (mole fraction) for entry CC(=O)N[C@@H](C)C(=O)O equals 0.0186

----------
reported conditions: in n-butyl acetate, 303.15 K
property: solubility (mole fraction)
Please give the numeric answer without any surrounding text.

The recorded solubility (mole fraction) for entry CC(=O)N[C@@H](C)C(=O)O equals 0.00504

----------
reported conditions: in acetone, 303.15 K
property: solubility (mole fraction)
Please give the numeric answer without any surrounding text.

The recorded solubility (mole fraction) for entry CC(=O)N[C@@H](C)C(=O)O equals 0.0446

----------
reported conditions: in n-butyl acetate, 323.15 K
property: solubility (mole fraction)
Please give the numeric answer without any surrounding text.

The recorded solubility (mole fraction) for entry CC(=O)N[C@@H](C)C(=O)O equals 0.00892
